# Ki listing for each entry below
- SYSTEM: T1, hCD71-Nluc fusion protein (human, UniProt P02786 1-760)
- T1 construct: whole, on cells; Used as crude membrane fractions of HEK293 cells stably expressing hCD71-Nluc; also called human transferrin receptor, CD71, fused to NanoLuc; not shown: NanoLuc (ProMega) luciferase joined through its N-terminal Val
- T1 sequence (P02786 other isoform, or with tags, fused parts or gaps): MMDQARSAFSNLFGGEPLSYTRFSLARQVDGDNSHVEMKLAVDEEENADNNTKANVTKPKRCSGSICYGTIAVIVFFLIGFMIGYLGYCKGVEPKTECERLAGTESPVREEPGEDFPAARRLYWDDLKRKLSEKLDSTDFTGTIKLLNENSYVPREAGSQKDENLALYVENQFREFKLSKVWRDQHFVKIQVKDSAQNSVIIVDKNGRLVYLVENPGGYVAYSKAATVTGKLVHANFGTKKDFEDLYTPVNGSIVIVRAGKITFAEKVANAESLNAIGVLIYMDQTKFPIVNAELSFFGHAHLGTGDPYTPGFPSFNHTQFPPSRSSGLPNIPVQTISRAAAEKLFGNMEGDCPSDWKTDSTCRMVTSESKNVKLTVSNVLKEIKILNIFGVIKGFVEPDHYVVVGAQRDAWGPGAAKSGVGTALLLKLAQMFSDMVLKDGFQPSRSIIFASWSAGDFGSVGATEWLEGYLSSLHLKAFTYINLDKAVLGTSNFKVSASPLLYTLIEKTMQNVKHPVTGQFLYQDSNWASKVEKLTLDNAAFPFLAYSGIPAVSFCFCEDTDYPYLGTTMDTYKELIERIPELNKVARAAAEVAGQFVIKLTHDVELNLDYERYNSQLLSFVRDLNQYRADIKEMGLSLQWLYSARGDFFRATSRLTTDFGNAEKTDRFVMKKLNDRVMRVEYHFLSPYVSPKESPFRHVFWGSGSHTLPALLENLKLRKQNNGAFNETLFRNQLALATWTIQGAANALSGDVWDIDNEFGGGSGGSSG
- PROCEDURE_TEXT: nanoBRET competition, tracer BCY17871-1598988 60 nM, HEK293 hCD71-Nluc membranes
Only the number, expressed in nM, is required.

Completed entries (count: 2):
CSPDAHLGCISYCEXWX (not fully specified; as printed CSPDAHLGCISYCE[Aze]W[K(N3)]: N-terminal acetyl; C-terminal amide; three Cys bound to TATB scaffold; [Aze] azetidine at 15; [K(N3)] 6-azido lysine at 17 joined via BCN linker to oligonucleotide 1590463, also called Compound No. 1590463 conjugated to BCY17892) [1590463-BCY17892]: 11
CSPDAHLGCISYCEPWX (as printed CSPDAHLGCISYCEPW[K(N3)]: N-terminal acetyl; C-terminal amide; three Cys bound to TATB scaffold; [K(N3)] 6-azido lysine at 17 joined to oligonucleotide 1602000 ([PEG1alkyne] linker), also called Compound No. 1602000 conjugated to BCY17873) [1602000-BCY17873]: 36

For CSPDAHLGCISYCEPWX (not fully specified; as printed CSPDAHLGCISYCEPW[K(N3)]: N-terminal acetyl; C-terminal amide; three Cys bound to TATB scaffold; [K(N3)] 6-azido lysine at 17 joined via BCN linker to oligonucleotide 1609732, also called Compound No. 1609732 conjugated to BCY17873) [1609732-BCY17873] , what is its reported Ki?
10

Same lookup for CPXDAYLGCXSYCEPWX (not fully specified; as printed CP[HyP]DAYLGC[tBuGly]SYCEPW[K(N3)]: N-terminal acetyl; C-terminal amide; three Cys bound to TATB scaffold; [HyP] 4-trans-hydroxy-L-proline at 3; [tBuGly] t-butyl glycine at 10; [K(N3)] 6-azido lysine at 17 joined via BCN linker to oligonucleotide 1590463, also called Compound 1590463-BCY17901; Compound No. 1666846) [1590463-BCY17901] , please.
1

Field entry: CSPDAHLGCISYCX (not fully specified; as printed CSPDAHLGCISYC[K(N3)(PYA-Maleimide)]: N-terminal acetyl; C-terminal amide; three Cys bound to TATB scaffold; modified lysine [K(N3)(PYA-Maleimide)] at 14 joined to oligonucleotide 1614439 (5' 6-mercaptohexanol linker), the coupling chemistry of this pair is not spelled out; also called Compound No. 1614439 conjugated to BCY17906) [1614439-BCY17906]
23

Record: CSPDAHLGCISYCEXWX (not fully specified; as printed CSPDAHLGCISYCE[dP]W[K(N3)]: N-terminal acetyl; C-terminal amide; three Cys bound to TATB scaffold; [dP] D-proline at 15; [K(N3)] 6-azido lysine at 17 joined via BCN linker to oligonucleotide 1590463, also called Compound No. 1590463 conjugated to BCY17890) [1590463-BCY17890]
20

What would you report for NXNCSPDAHLGCISYCX (not fully specified; as printed N[dY]NCSPDAHLGCISYC[K(N3)]: N-terminal acetyl; C-terminal amide; three Cys bound to TATB scaffold; [dY] D-tyrosine at 2; [K(N3)] 6-azido lysine at 17 joined via BCN linker to oligonucleotide 1590463, also called Compound No. 1590463 conjugated to BCY17882) [1590463-BCY17882] ?
55

Also CSPDAHLGCISYCEXWX (not fully specified; as printed CSPDAHLGCISYCE[Pip]W[K(N3)]: N-terminal acetyl; C-terminal amide; three Cys bound to TATB scaffold; [Pip] pipecolic acid at 15; [K(N3)] 6-azido lysine at 17 joined via BCN linker to oligonucleotide 1590463, also called Compound No. 1590463 conjugated to BCY17894) [1590463-BCY17894] ?
10
